# system_under_test: VIM-1 (Pseudomonas aeruginosa (strain ATCC 15692 / DSM 22644 / CIP 104116 / JCM 14847 / LMG 12228 / 1C / PRS 101 / PAO1), UniProt A0A0F7KYQ8)
# experiment_summary: biochemical
# condition_notes: fluorescence assay, CCF2-FA substrate, 30 pM enzyme, 2 hours at 25° C.; read-out: VIM-1 IC50
readout_label: pIC50
Please note pIC50 is a logarithmic value: minus log10 of concentration in mol/L. Answer with that number alone.

Consider the worked cases shown below.
CC[C@H](CN)NS(=O)(=O)c1ccc(-c2cccc3[nH]c(N)nc23)c(-c2nn[nH]n2)c1S(N)(=O)=O	10.03
CC(C)(CN)NS(=O)(=O)c1ccc(-c2cccnc2N)c(-c2nn[nH]n2)c1S(N)(=O)=O	9.74
NC[C@H](O)CNS(=O)(=O)c1ccc(-c2cccc3[nH]cnc23)c(-c2nn[nH]n2)c1S(N)(=O)=O	9.95

Reported pIC50 ( "C[C@@H](CCN)NS(=O)(=O)c1ccc(-c2ccc(N)nc2)c(-c2nn[nH]n2)c1S(N)(=O)=O" ) = 9.54

response.value for NCC1CCCCN1S(=O)(=O)c1ccc(-c2cccc3sc(N)nc23)c(-c2nnn[nH]2)c1S(N)(=O)=O.O=C(O)C(F)(F)F (stereo not shown) [Example 110, 2,2,2-trifluoroacetate] (field: pIC50) = 9.51

# pIC50 (molecule: "Cl.Cl.NCCCNS(=O)(=O)c1ccc(-c2ccc(N)nc2)c(-c2nn[nH]n2)c1S(N)(=O)=O" ) is 9.76

---

# Tested on: Pseudomonas aeruginosa MB9798 vs MB9799
# condition_notes: ratio MITC95 PA_9798/MITC95 PA_9799
readout_label: Efflux ratio

NCCNS(=O)(=O)c1ccc(-c2cccc3[nH]c([C@H](N)CN)nc23)c(-c2nn[nH]n2)c1S(N)(=O)=O	2.00
NS(=O)(=O)c1c(S(=O)(=O)N[C@@H]2CCNC2)ccc(-c2cccc3c2OC(F)(F)O3)c1-c1nnn[nH]1	16.00
C[C@H](CN)NS(=O)(=O)c1ccc(-c2cccc3[nH]c(N)nc23)c(-c2nn[nH]n2)c1S(N)(=O)=O	0.50
Nc1ccc(-c2ccc(S(=O)(=O)N[C@H]3CCNC3)c(S(N)(=O)=O)c2-c2nn[nH]n2)cn1	1.00
NC[C@H](N)CNS(=O)(=O)c1ccc(-c2cccc3ccc(N)nc23)c(-c2nn[nH]n2)c1S(N)(=O)=O	1.00

Field Efflux ratio (entry "Nc1nc2c(-c3ccc(S(=O)(=O)N[C@@H]4CNC[C@@H]4F)c(S(N)(=O)=O)c3-c3nnn[nH]3)cccc2s1" ) reads 1.00

What the record says about "NCc1nc2c(-c3ccc(S(=O)(=O)NC[C@H](O)CN)c(S(N)(=O)=O)c3-c3nn[nH]n3)cccc2[nH]1" : Efflux ratio is 1.00

// field: Efflux ratio; key: "Cn1nnc2ccc(-c3ccc(S(=O)(=O)N[C@@H]4CCNC4)c(S(N)(=O)=O)c3-c3nnn[nH]3)cc21" ; value = 15.99

Kindly note the recorded Efflux ratio for "NCCNC(=O)c1cccc(-c2ccc(S(=O)(=O)NCCN)c(S(N)(=O)=O)c2-c2nn[nH]n2)c1N" , which is 1.00

The recorded Efflux ratio for entry "NC[C@@H]1CCN(S(=O)(=O)c2ccc(-c3cccc4sc(N)nc34)c(-c3nnn[nH]3)c2S(N)(=O)=O)C1.O=C(O)C(F)(F)F" equals 1.00

Cited source for all entries: patent US10221163B2
